tested on: Synaptosomal Uptake of Norepinephrine (NE), rat hypothalmus; assay: Blockade of synaptosomal uptake of norepinephrine (NE) in vitro; type: biochemical, rat (Sprague-Dawley CD); settings: Examples 26-49
Counter-ions that a name gives are not always drawn.
Listing of entries alongside the reported log10 IC50.
# values: log10(IC50), units nM

Solved cases below.
| Compound | log10 IC50 |
| --- | --- |
| CN[C@H]1CC[C@@H](c2ccc(F)cc2)c2ccccc21 (relative stereo) [Example 7, Hydrochloride] | 3.36 |
| CN[C@@H]1CC[C@H](c2ccc(C(F)(F)F)cc2)c2ccccc21 [Example 10] | 4.08 |
| CN[C@H]1CC[C@@H](c2ccccc2)c2ccccc21 (relative stereo) [Comparative Example, hydrochloride, reference compound] | 3.28 |
| CN[C@@H]1CC[C@H](c2ccc(Cl)c(C(F)(F)F)c2)c2ccccc21 [Example 14] | 3.38 |
| CN[C@H]1CC[C@@H](c2ccc(Cl)c(C(F)(F)F)c2)c2ccccc21 [Example 13] | 3.56 |

Find the recorded log10 IC50 belonging to CN[C@@H]1CC[C@H](c2cccc(C(F)(F)F)c2)c2ccccc21 (relative stereo) [Example 11] and report it.
3.40

Look up log10 IC50 for this compound: CN[C@H]1CC[C@@H](c2ccc(Br)cc2)c2ccccc21 (relative stereo) [Example 16, Hydrochloride]
3.15

Look at this compound and give its reported log10 IC50. CN(C)[C@@H]1CC[C@H](c2ccc(Cl)cc2)c2ccccc21 (relative stereo) [Example 24]
3.08

Suppose we examine the compound CN[C@H]1CC[C@@H](c2cccc(OC)c2)c2ccccc21 (relative stereo) [Example 19] ; what log10 IC50 value has been reported?
3.15

Entry under review: CN[C@H]1CC[C@@H](c2ccc(Cl)cc2)c2ccc(OC)cc21 (relative stereo) [Example 21, Hydrochloride] . Reported log10 IC50?
2.67
